Molecular target: T1, factor XIIIa (human, UniProt P00488 39-732)
T1 sequence (looked up): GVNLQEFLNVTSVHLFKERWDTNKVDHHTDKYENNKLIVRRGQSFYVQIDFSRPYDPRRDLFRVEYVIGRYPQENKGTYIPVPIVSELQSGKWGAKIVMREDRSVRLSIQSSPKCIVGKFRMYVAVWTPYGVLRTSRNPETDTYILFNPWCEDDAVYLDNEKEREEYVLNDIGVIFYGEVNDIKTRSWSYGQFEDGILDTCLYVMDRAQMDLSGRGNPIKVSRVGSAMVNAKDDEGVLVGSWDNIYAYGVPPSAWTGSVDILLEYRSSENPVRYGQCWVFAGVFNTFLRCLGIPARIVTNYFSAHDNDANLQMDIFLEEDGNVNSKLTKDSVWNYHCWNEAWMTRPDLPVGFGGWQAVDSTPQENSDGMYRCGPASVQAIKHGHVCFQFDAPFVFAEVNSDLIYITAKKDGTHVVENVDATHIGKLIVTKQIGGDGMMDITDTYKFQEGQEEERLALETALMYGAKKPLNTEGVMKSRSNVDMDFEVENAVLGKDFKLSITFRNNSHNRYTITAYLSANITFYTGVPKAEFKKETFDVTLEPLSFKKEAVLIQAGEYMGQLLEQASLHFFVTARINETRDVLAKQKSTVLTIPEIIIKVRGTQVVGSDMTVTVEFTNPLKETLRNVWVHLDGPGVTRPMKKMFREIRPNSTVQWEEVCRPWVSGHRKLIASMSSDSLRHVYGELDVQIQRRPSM
Assay: cell-based or functional assay
Relative inhibitory effect (%) at 7.27 µM, recombinant tridegin = 100%: recorded values
recorded.endpoint: Relative inhibitory effect (%) at 7.27 µM, recombinant tridegin = 100%

>  <binder>
Ac-KEWHQGIPNPRCWCGADLEC-NH2 (cysteine pairing not given here) [20 amino acid-long tridegin peptide SEQ ID NO.5]

>  <val>
1.96

$$$$
>  <binder>
Ac-IKPMDDIYQRPVEFPNLPLK-NH2 [20 amino acid-long tridegin peptide SEQ ID NO.24]

>  <val>
43.5

$$$$
>  <binder>
Ac-DDIYQRPVEFPNLPLKPREE-NH2 [20 amino acid-long tridegin peptide SEQ ID NO.26]

>  <val>
35.6

$$$$
>  <binder>
Ac-WHQGIPNPRCWCGADLECAQ-NH2 (cysteine pairing not given here) [20 amino acid-long tridegin peptide SEQ ID NO.6]

>  <val>
9.8

$$$$
>  <binder>
Ac-IPQCRPRSELIKPMDDIYQR-NH2 [20 amino acid-long tridegin peptide SEQ ID NO.19]

>  <val>
0

$$$$
>  <binder>
Ac-MKLLPCKEWHQGIPNPRCWC-NH2 (cysteine pairing not given here) [20 amino acid-long tridegin peptide SEQ ID NO.2]

>  <val>
0

$$$$
>  <binder>
Ac-YCAFEPQCRPRSELIKPMDD-NH2 (cysteine pairing not given here) [20 amino acid-long tridegin peptide SEQ ID NO.17]

>  <val>
12.3

$$$$
>  <binder>
Ac-DQYCAFIPQCRPRSELIKPM-NH2 (cysteine pairing not given here) [20 amino acid-long tridegin peptide SEQ ID NO.16]

>  <val>
14.8

$$$$
>  <binder>
Ac-QCRPRSELIKPMDDIYQRPV-NH2 [20 amino acid-long tridegin peptide SEQ ID NO.20]

>  <val>
11.1

$$$$
>  <binder>
Ac-DLECAQDQYCAFIPQCRPRS-NH2 (cysteine pairing not given here) [20 amino acid-long tridegin peptide SEQ ID NO.13]

>  <val>
7.96

$$$$
>  <binder>
Ac-ELIKPMDDIYQRPVEFPNLP-NH2 [20 amino acid-long tridegin peptide SEQ ID NO.23]

>  <val>
24

$$$$
>  <binder>
Ac-RCWCGADLECAQDQYCAFIP-NH2 (cysteine pairing not given here) [20 amino acid-long tridegin peptide SEQ ID NO.10]

>  <val>
5.88

$$$$
